Hello, the source for this data is the supplement of paper PMC10567573, in case you need it.

- protocol-description: protein stability index of a GFP-peptide fusion (GPS, HEK-293T) (PSI 1-6); higher = more stable;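 further: 24-mer peptide tiles fused after GFP, lentivirally expressed, FACS-sorted into six equal bins by GFP/DsRed ratio, decoded by Illumina sequencing, PSI is the read-weighted mean bin number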
- test-context: treatment: MLN4924 1 uM, 8 h; c terminus: a fixed tail appended
measurement-type: protein stability index

residue_codes="HRQSFGTNSDVLAQQFALMAPLLF [DCAF4]" recorded_measurement=2.36
residue_codes="FMLLTQARLFDEPQLASLCLDTID [BTBD1]" recorded_measurement=2.34
residue_codes="FMLLLIFFAFLHCWLNAFAEMLRF [SOAT2]" recorded_measurement=2.88
residue_codes="VIYNYVQRPFIRMSWEKEEGKSRH [BTBD10]" recorded_measurement=2.46
residue_codes="MHLARCRWASAPPLYTLIDVLKYS [ZSWIM9]" recorded_measurement=2.43
residue_codes="RVKREFEPASAREAPASVVPFVRV [USP39]" recorded_measurement=3.5
residue_codes="FRYLQGMLEAGEGGDWPGPGGPRN [PDLIM4]" recorded_measurement=3.64
residue_codes="ESEFDIEDEDKSEPEQTGADAAED [RBBP5]" recorded_measurement=5.83
residue_codes="DREQVSSYNITVTATDGGSPPLST [PCDHGA10]" recorded_measurement=4.74
residue_codes="PALKECIQGADTIRCVYILDPWFA [CRY1]" recorded_measurement=2.73
residue_codes="MLKIHRSDPQLIVQLRFCGRQPCG [TRADD]" recorded_measurement=1.92
residue_codes="RRLAQEPLGLEVDQFLEDVRLQER [NOP53]" recorded_measurement=4.54
residue_codes="AVFIALLPILGHRDYKIQASRTWC [PTGFR]" recorded_measurement=2.81
residue_codes="TGFTVNVAWNGPRMGDADYLAAWH [HDAC6]" recorded_measurement=2.18
residue_codes="AWEDSHGSQDGHFVLSCSYDGLDC [SCNN1D]" recorded_measurement=3.59
residue_codes="EQGLSALHLAAQGRHAQTVETLLR [RIPK4]" recorded_measurement=4.12
residue_codes="LKAKLQMTEAALALSEQKAQDLGE [LRRC45]" recorded_measurement=4.57
residue_codes="ILTERVSLPFKPFAIILPILLNIR [MIA2]" recorded_measurement=3.79
residue_codes="ESLLAPLNVELDPEIQKVRAQERE [KRT71]" recorded_measurement=5.48
residue_codes="THLLMGLAGGKLILSLEGGYNLRA [HDAC6]" recorded_measurement=2.91
residue_codes="LEQRSESVRRTRSKIGFGILLSKE [SMAD6]" recorded_measurement=3.5
residue_codes="LLISCAVSYRGAWWYRNCHYANLN [TNXB]" recorded_measurement=2.99
residue_codes="GYPPFCSETPQETYRKVMNWKETL [STK38L]" recorded_measurement=3.05
residue_codes="SPDGALLATASYDTRVYIWDPHNG [WSB1]" recorded_measurement=2.51
residue_codes="WAQYRQGEARFLPKDLDPSLCTHL [CHIT1]" recorded_measurement=2.78
